interaction score for assorted binders
Subject of test: T1, 4H446-AA
T1 chain: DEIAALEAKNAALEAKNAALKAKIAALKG
Protocol description: two-hybrid library CCmax;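 note: natural log of median RNA to DNA barcode read ratio; higher means stronger binding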
Assay conditions: mean of both orientations
Recorded endpoint: interaction score

Binder | Recorded endpoint | Result
DKNAALKAKNAALEAEIAALEAKIAALKG [4H3974-AA] | interaction score | -0.724
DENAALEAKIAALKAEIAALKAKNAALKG [4H1360-AA] | interaction score | -1.69
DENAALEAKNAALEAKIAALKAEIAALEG [4H1449-AA] | interaction score | -1.39
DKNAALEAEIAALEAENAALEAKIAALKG [4H3094-AA] | interaction score | -0.811
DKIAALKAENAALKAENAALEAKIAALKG [4H2774-AA] | interaction score | 1.28
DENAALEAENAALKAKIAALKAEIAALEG [4H1257-AA] | interaction score | -1.65
DKNAALKAEIAALEAKIAALEAENAALEG [4H3619-AA] | interaction score | -1.21
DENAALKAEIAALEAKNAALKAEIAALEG [4H1593-AA] | interaction score | -1.84
DEIAALEAKNAALEAKIAALKAKNAALKG [4H432-AA] | interaction score | -1.7
DKNAALKAENAALKAEIAALEAEIAALEG [4H3777-AA] | interaction score | -0.779
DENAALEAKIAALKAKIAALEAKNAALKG [4H1384-AA] | interaction score | -2.33
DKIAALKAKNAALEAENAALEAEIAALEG [4H2961-AA] | interaction score | 1.97
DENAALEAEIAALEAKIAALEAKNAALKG [4H1064-AA] | interaction score | -1.26
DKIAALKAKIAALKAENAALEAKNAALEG [4H2903-AA] | interaction score | -0.722
